- measurement-target: human FXa (Homo sapiens, UniProt P00742)
- Sequence (P00742 235-488 limits assumed): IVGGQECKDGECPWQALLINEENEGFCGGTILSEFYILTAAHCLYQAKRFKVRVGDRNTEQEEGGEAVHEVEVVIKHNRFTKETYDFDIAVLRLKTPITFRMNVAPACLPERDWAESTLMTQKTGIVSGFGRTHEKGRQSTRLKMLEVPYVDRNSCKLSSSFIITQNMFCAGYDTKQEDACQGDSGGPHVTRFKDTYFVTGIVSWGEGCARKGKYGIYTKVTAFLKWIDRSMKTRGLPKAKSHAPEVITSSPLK
- Sequence (P00742 41-179 partner limits assumed): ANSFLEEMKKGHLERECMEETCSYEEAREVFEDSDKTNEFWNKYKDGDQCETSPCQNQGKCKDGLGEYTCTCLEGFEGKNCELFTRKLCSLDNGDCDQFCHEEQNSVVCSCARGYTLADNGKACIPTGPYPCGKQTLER
pIC50: −log10 of the molar value.
measurement-name: pIC50

Look over these answered cases.
molecule	number
C#CC(=O)N1CCC2(CC1)CN1C(=O)CN(S(=O)(=O)c3cc4cc(Cl)ccc4[nH]3)CC1(COC)N2C (single isomer, unassigned; (-))	8.59
C#CC(=O)N1CCC2(CC1)CN1C(=O)CN(S(=O)(=O)c3cc4ccc(Cl)cc4s3)CC1(COC)N2C (single isomer, unassigned; (-))	8.19
CCC(=O)N1CCC2(CC1)CN1C(=O)CN(S(=O)(=O)c3cc4cc(Cl)ccc4[nH]3)CC1(COC)N2C (single isomer, unassigned; (-))	8.74

(I) CCC(=O)N1CCC2(CC1)CN1C(=O)CN(S(=O)(=O)c3cc4cc(Cl)ccc4[nH]3)CC1(CN(C)CC(=O)O)O2 (single isomer, unassigned)
(II) COCC12CN(S(=O)(=O)c3cc4cc(Cl)ccc4[nH]3)CC(=O)N1CC1(CCN(C(C)=O)CC1)N2C (single isomer, unassigned; (-))
Q) Between the entries labeled I and II , whose measured pIC50 is lower? When you have decided, please share the label of that item.
A) II
